- Assay target: Gamma-aminobutyric acid receptor subunit alpha-6/beta-3/gamma-2 (Rattus norvegicus) (UniProt P18508+P30191+P63079)
- Test: Positive allosteric modulation of rat recombinant GABAA alpha6beta3alpha6-gamma2beta3 receptor expressed in Xenopus laevis oocytes assessed as maximal efficacy at -80 mV holding potential at 3 uM in presence of GABA EC1 to 1.5 by two-electrode voltage-clamp assay
- Assay type: cell-based
- Conditions used: Oocyte, filed as positive allosteric modulator
Metric name: Efficacy (%)
// units = %; emit number, no label

Observe how each entry below is paired with its result.
>>> reported_result("COc1ccc(-n2nc3c4ccc(C(F)(F)F)cc4[nH]cc-3c2=O)cc1")
216
>>> reported_result("CCc1ccc2c3nn(-c4ccc(OC)cc4)c(=O)c-3c[nH]c2c1")
216

Determine its reported Efficacy: COc1ccc(-n2nc3c4ccc(C)cc4[nH]cc-3c2=O)cc1 456

Determine its reported Efficacy: COc1ccc(-n2nc3c4ccc(OC)cc4[nH]cc-3c2=O)cc1 234

Determine its reported Efficacy: COc1ccc(-n2nc3c4ccc(F)cc4[nH]cc-3c2=O)cc1 235

Determine its reported Efficacy: COc1ccc(-n2nc3c4ccccc4[nH]cc-3c2=O)cc1 214
